Biological target: Aminopeptidase N (Sus scrofa, UniProt P15145)
Sequence (P15145 whole entry): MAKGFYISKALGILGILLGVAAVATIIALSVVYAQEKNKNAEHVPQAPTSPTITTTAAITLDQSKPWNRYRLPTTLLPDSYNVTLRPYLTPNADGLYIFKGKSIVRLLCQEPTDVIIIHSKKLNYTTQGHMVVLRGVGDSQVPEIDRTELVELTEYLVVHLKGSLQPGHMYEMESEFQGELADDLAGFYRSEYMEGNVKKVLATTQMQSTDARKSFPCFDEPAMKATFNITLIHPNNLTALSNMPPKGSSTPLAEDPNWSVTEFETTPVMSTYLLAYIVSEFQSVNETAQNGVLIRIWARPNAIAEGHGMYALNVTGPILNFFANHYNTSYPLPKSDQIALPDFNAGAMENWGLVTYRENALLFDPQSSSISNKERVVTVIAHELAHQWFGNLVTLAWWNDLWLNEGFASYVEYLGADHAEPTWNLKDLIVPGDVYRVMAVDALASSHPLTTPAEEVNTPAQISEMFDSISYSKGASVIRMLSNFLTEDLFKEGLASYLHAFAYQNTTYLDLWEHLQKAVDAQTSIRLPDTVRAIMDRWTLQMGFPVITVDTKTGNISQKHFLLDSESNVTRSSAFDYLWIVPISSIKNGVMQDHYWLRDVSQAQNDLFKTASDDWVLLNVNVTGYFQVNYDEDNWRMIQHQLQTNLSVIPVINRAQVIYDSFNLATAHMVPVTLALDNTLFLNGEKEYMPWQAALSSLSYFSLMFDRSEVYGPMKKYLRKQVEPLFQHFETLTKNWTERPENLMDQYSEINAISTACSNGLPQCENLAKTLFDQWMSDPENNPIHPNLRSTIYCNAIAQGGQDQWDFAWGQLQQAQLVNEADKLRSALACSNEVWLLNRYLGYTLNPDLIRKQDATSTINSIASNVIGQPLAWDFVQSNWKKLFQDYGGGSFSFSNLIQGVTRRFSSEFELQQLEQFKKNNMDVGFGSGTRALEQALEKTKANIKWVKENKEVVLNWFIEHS
Assay: Inhibition of [3H]Leu-enkephalin binding to Aminopeptidase N from hog kidney
Property Measured: IC50

// below: answered compounds
• NC(CSCc1ccccc1)Cc1ccccc1 (centres undefined) = 80000 nM
• CC(C)(C)SCC(N)CS (centres undefined) = 40 nM
• CNC(CS)CC(C)C (centres undefined) = 4000 nM

Record NC(CS)CSCc1ccccc1 (centres undefined) / Aminopeptidase N (Sus scrofa, UniProt P15145), IC50 recorded as 90 nM

Record NC(CS)Cc1ccc2ccccc2c1 (centres undefined) / Aminopeptidase N (Sus scrofa, UniProt P15145), IC50 recorded as 130 nM

Record NC(CS)COCc1ccccc1 (centres undefined) / Aminopeptidase N (Sus scrofa, UniProt P15145), IC50 recorded as 56 nM

Record CC(C)CC(N)CS (centres undefined) / Aminopeptidase N (Sus scrofa, UniProt P15145), IC50 recorded as 22 nM

Record NC(Cc1ccccc1)CP(=O)(O)O (centres undefined) / Aminopeptidase N (Sus scrofa, UniProt P15145), IC50 recorded as 500000 nM

Record SCC(Cc1ccccc1)NCc1ccccc1 (centres undefined) / Aminopeptidase N (Sus scrofa, UniProt P15145), IC50 recorded as 160000 nM

----------
Biological target: Aminopeptidase N (Sus scrofa, UniProt P15145)
Test: Compound was tested for inhibitory potency against aminopeptidase N from hog kidney, using [3H]Leu-enkephalin as substrate
Listing of recorded IC50 by entry.
Your answer is read as nM, so omit the unit and give the number.

// below: answered compounds
* NC(CS)CC1CCCCC1 (centres undefined) | 45
* NC(CS)c1ccccc1 (centres undefined) | 25
* NC(CC(=O)O)Cc1ccccc1 (centres undefined) | 800000

Now look at this entry.
Record summary for NC(CS)Cc1ccc(O)cc1 (centres undefined) : reported IC50 = 45

----------
Test system: Mus musculus
Assay: Compound (20 mg/kg) was tested for antinociceptive responses induced in hot plate test in mice after an iv dose of acetorphan 10 mg/kg.
Type: functional
Class TRUE: Jump latency time at least 200 s. Class FALSE: Jump latency time below 200 s.

Recorded results for 6 compounds are shown here.
- C[S+]([O-])CCC(N)CS (configuration not stated): TRUE
- CC(C)CC(N)CS (configuration not stated): TRUE
- NC(CS)CSCc1ccccc1 (configuration not stated): TRUE
- NC(CS)Cc1ccc2ccccc2c1 (configuration not stated): FALSE
- CSCCC(N)CS (configuration not stated): TRUE
- NC(CS)COCc1ccccc1 (configuration not stated): FALSE

Identify whether the reported Jump latency time of the following compound is 200 s or greater: NC(CS)Cc1ccc(O)cc1 (configuration not stated)
FALSE

Reference source for all entries: ChEMBL document CHEMBL1125423
